Source: patent US6720142B1

System: E. coli JM109 carrying the plasmid vector pACSE without an ampC gene
MIC under 2 µg/mL gets TRUE, anything at or over 2 µg/mL gets FALSE.

These solved cases illustrate the format of a correct answer.
# compound, group.label
data = [
    ("CCN1CCN(C(=O)N[C@@H](C(=O)N[C@@H]2C(=O)N3[C@@H]2SC(C)(C)[C@@H]3C(=O)O)c2ccccc2)C(=O)C1=O [Pipericillin, pipericillin]", "FALSE"),
    ("CC(C)(O/N=C(\\C(=O)N[C@@H]1C(=O)N2C(C(=O)[O-])=C(C[n+]3ccccc3)CS[C@H]12)c1csc(N)n1)C(=O)O [Ceftazidime, ceftazidime]", "TRUE"),
    ("CO/N=C(\\C(=O)N[C@@H]1C(=O)N2C(C(=O)O)=C(COC(C)=O)CS[C@H]12)c1csc(N)n1 [Cefotaxime, cefotaxime]", "TRUE"),
    ("CC(=O)OCC1=C(C(=O)O)N2C(=O)[C@@H](NC(=O)Cc3cccs3)[C@H]2SC1 [Cephalothin, cephalothin]", "FALSE"),
    ("C[C@@H](O)[C@H]1C(=O)N2C(C(=O)O)=C(S[C@@H]3CN[C@H](C(=O)N(C)C)C3)[C@H](C)[C@H]12 [Meropenem, meropenem]", "TRUE"),
]

Is it true that MIC reported for C[C@@H](O)[C@H]1C(=O)N2C(C(=O)O)=C(SCCN=CN)C[C@H]12 [Imipenem, imipenem] is less than 2 µg/mL?
TRUE

Is it true that MIC reported for CO[C@@]1(NC(=O)C(C(=O)O)c2ccsc2)C(=O)N2[C@@H](C(=O)O)C(C)(C)S[C@@H]21 (some centres unmarked) [Temocillin, temocillin] is less than 2 µg/mL?
FALSE

Is it true that MIC reported for C[C@H]1[C@H](NC(=O)/C(=N\OC(C)(C)C(=O)O)c2csc(N)n2)C(=O)N1S(=O)(=O)O [Aztreonam, aztreonam] is less than 2 µg/mL?
TRUE

Is it true that MIC reported for CO/N=C(\C(=O)N[C@@H]1C(=O)N2C(C(=O)O)=C(COC(N)=O)CS[C@H]12)c1ccco1 [Cefuroxime, cefuroxime] is less than 2 µg/mL?
FALSE

Is it true that MIC reported for CO/N=C(\C(=O)N[C@@H]1C(=O)N2C(C(=O)[O-])=C(C[N+]3(C)CCCC3)CS[C@H]12)c1csc(N)n1 [Cefepime, cefepime] is less than 2 µg/mL?
TRUE

* * *

Tested on: E. coli DH5α-E containing multiply mutated ampC
Assay: MIC of population of E. coli host cells containing multiply mutated (DNA-shuffled) ampC
Assay type: cell-based
Settings: Escherichia coli; lowest drug concentration that completely inhibited growth; overnight at 37° C., MH-I broth, 48-well plates, shuffled ampC library in DH5α-E
test.readout: MIC (µg/mL)
Answers are plain numbers, in µg/mL.

Use these answered entries as a reference point.
# molecule, display.unit, recorded.value
measured = [
    ("C[C@@H](O)[C@H]1C(=O)N2C(C(=O)O)=C(S[C@@H]3CN[C@H](C(=O)N(C)C)C3)[C@H](C)[C@H]12", "µg/mL", 0.0312),
    ("CC(C)(O/N=C(\\C(=O)N[C@@H]1C(=O)N2C(C(=O)[O-])=C(C[n+]3ccccc3)CS[C@H]12)c1csc(N)n1)C(=O)O", "µg/mL", 64),
    ("CO[C@@]1(NC(=O)C(C(=O)O)c2ccsc2)C(=O)N2[C@@H](C(=O)O)C(C)(C)S[C@@H]21 (stereo partly drawn)", "µg/mL", 32),
    ("CO/N=C(\\C(=O)N[C@@H]1C(=O)N2C(C(=O)O)=C(COC(N)=O)CS[C@H]12)c1ccco1", "µg/mL", 512),
]

We next turn to a different molecule, shown below.
Query MIC for `CC(=O)OCC1=C(C(=O)O)N2C(=O)[C@@H](NC(=O)Cc3cccs3)[C@H]2SC1`
1020
